assay: Hemolymph concentration after injection into grasshoppers, measured by LCMS; details: male, Locusta migratoria (grasshopper/locust), in vivo, 168 µg per insect

compound | units symbol | concentration at 5 min
O=C1CC2(CCCC2)CC(=O)N1CCCCN1CCN(c2ncccn2)CC1 [buspirone] | ng/mL | 4500

// provenance: patent US9194864B2
